- study-system: BRD4-BD1 (Homo sapiens, UniProt O60885)
- Construct: 3.8 nM (BRD4-BD1, BPS Bioscience #31040)
- experiment-description: BRD4 AlphaScreen assay, BD1
- experimental-context: H4Ac4 peptide, 3.8 nM BRD4-BD1, read-out: BRD4 BD-1 enzyme IC50
pIC50: −log10 of the molar value.
quantity-kind: pIC50

1) Cn1cc(-c2c(Oc3ccc(F)cc3F)ccc3[nH]c(=O)[nH]c23)c2cc[nH]c2c1=O = 5.00 to 6.00

(Q) I have this compound here, Cn1cc(-c2c(Oc3ccc(F)cc3F)ccc3[nH]cnc23)c2cc[nH]c2c1=O , and I need its recorded pIC50.
(A) 5.00 to 6.00

====

Measured pIC50, listed per entry for reference.
- study-system: BRD4-BD2 (Homo sapiens)
- Construct: 20 nM (BRD4-BD2, BPS Bioscience #31041)
- experiment-description: BRD4 AlphaScreen assay, BD2
- experimental-context: H4Ac4 peptide, 20 nM BRD4-BD2, read-out: BRD4 BD-2 enzyme IC50
pIC50: −log10 of the molar value.

1) Cn1cc(-c2c(Oc3ccc(F)cc3F)ccc3[nH]cnc23)c2cc[nH]c2c1=O [Example 2] = ≥ 7.00

(Q) Entry Cn1cc(-c2c(Oc3ccc(F)cc3F)ccc3[nH]c(=O)[nH]c23)c2cc[nH]c2c1=O [Example 1] , system BRD4-BD2 (Homo sapiens): what pIC50 was measured?
(A) 6.00 to 7.00
